Let's go through some recorded IC50 values for UniProtKB P29089 together.
Sequence (P29089 whole entry): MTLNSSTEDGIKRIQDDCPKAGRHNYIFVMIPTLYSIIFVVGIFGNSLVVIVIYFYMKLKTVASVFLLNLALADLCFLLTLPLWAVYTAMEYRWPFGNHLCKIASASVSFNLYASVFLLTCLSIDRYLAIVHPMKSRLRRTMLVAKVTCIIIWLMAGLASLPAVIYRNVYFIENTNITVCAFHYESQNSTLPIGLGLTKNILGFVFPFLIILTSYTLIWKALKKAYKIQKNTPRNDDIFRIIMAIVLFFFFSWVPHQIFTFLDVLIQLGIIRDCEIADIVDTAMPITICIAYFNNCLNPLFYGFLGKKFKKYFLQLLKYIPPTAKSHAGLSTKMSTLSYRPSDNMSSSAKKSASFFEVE
I only need the number, in nM, no unit after it.

CCCCc1nc(CCCC)n(Cc2ccc(-n3c(Cl)cc(Cl)c3-c3nnn[nH]3)cc2)n1 | 52

// returns reported IC50 for input CCCCc1nc(CCCC)n(Cc2ccc(-c3ccccc3-c3nnn[nH]3)cc2)n1
6.5

====

testSystem: UniProt:P35351
Sequence (P35351 whole entry): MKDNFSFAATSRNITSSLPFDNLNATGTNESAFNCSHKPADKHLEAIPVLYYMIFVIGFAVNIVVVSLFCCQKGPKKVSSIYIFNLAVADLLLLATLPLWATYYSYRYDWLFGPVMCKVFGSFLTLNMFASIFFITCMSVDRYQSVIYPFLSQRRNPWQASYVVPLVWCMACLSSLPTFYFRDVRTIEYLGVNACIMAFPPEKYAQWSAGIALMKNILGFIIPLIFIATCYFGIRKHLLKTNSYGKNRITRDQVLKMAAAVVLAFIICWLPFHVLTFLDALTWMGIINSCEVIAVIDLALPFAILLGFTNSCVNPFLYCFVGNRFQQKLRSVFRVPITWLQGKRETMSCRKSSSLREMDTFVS
measurementLabel: pIC50
# pIC50 is unitless: minus log10 of the molar concentration; print number only

Requested read-out: pIC50. Entry: CCCCc1nc(CCCC)n(Cc2ccc(-n3c(Cl)cc(Cl)c3-c3nnn[nH]3)cc2)n1
3.09
